test system: ACHN renal; test: NCI-60 one-dose screen, 48 h (100 = growth as untreated, 0 = no growth, -100 = all killed); conditions: 10 µM unless noted
About 83,000 compounds went through this panel and 20% of them were active in at least one assay; those are over-represented in the sample as a whole. Active and inactive are the calls of the source. The calls were made as follows: active = growth percent below 10; inactive = the rest.

>  <COMPOUND_STRUCTURE>
Cc1ccc(/C=C2\SC(=S)N(CC(=O)NCCCN3CCOCC3)C2=O)cc1

>  <growth>
90.5% (inactive)

$$$$
>  <COMPOUND_STRUCTURE>
O=C(N/N=C/c1ccccc1O)c1ccccc1Nc1ccnc(C(F)(F)F)c1

>  <growth>
5.8% (active)

$$$$
>  <COMPOUND_STRUCTURE>
O=C1/C(=C/c2ccc3c(c2)OCO3)SC(=S)N1CCc1ccc(O)cc1

>  <growth>
97.2% (inactive)

$$$$
>  <COMPOUND_STRUCTURE>
COc1ccc(S(=O)(=O)N2CCN(C)CC2)cc1NC(=O)c1[nH]c(C)c2c1CCCCC2=O

>  <growth>
58.6% (inactive)

$$$$
>  <COMPOUND_STRUCTURE>
COc1ccc(-c2cc(NC(=O)Nc3ccc4ncsc4c3)no2)cc1

>  <growth>
99.6% (inactive)

$$$$

----------
test system: SW-620 colon; experiment: NCI-60 one-dose screen, 48 h; settings: 10 µM unless noted
About 83,000 compounds went through this panel and 20% of them were active in at least one assay; those are over-represented in the sample as a whole. The source made the active and inactive calls. How the source made its calls: active means growth percent below 10; inactive means the rest.
Outcome codes: active, inactive

>  <MOLECULE>
OC(c1cc2cc(Cl)c(Cl)cc2c2cc(C(F)(F)F)ccc12)C1CCCCN1 (stereo not drawn)

>  <CATEGORY_LABEL>
active

$$$$
>  <MOLECULE>
C=C(C)[C@@H]1CC[C@]2(C(N)=O)CC[C@]3(C)[C@H](CC[C@@H]4[C@@]5(C)C/C(=C/c6ccco6)C(=O)C(C)(C)[C@@H]5CC[C@]43C)[C@@H]12

>  <CATEGORY_LABEL>
inactive

$$$$
>  <MOLECULE>
Cc1ccc2oc(=O)cc(C3c4ccc([nH]4)C(c4cc(=O)oc5ccc(C)cc45)c4ccc([nH]4)C(c4cc(=O)oc5ccc(C)cc45)c4ccc([nH]4)C(c4cc(=O)oc5ccc(C)cc45)c4ccc3[nH]4)c2c1 (stereo not drawn)

>  <CATEGORY_LABEL>
active

$$$$

----------
test system: EKVX NSCLC; assay: NCI-60 one-dose screen, 48 h (100 = growth as untreated, 0 = no growth, -100 = all killed); settings: 10 µM unless noted
This is part of a sample that, as a whole, favours compounds with a hit. Of some 83,000 tested, about 20% had one in any assay.

>  <COMPOUND_STRUCTURE>
COc1ccc(-c2nc(SCC(=O)Nc3ccc(C(=O)/C=C/c4ccc(Cl)cc4)cc3)[nH]c(=O)c2C#N)cc1

>  <growth, %>
95.7

$$$$
>  <COMPOUND_STRUCTURE>
CCCCC[C@H]1C/C=C2/C(=O)C=C[C@@H]2C/C=C\CCCC(=O)O1

>  <growth, %>
-18

$$$$
>  <COMPOUND_STRUCTURE>
COc1ccc(C(=O)COc2ccc(/C=C3\Oc4ccc(OC)cc4C3=O)cc2)cc1

>  <growth, %>
99.4

$$$$
>  <COMPOUND_STRUCTURE>
COc1ccc(-c2nc3ccc(-c4nc5ccc(N6CCN(c7ccccc7)CC6)cc5[nH]4)cc3[nH]2)cc1OC

>  <growth, %>
40.1

$$$$
>  <COMPOUND_STRUCTURE>
CN(C)c1ccc(N=Nc2ccc(Br)cn2)c(O)c1

>  <growth, %>
14.3

$$$$
>  <COMPOUND_STRUCTURE>
Cn1cc(C(=O)c2nc(-c3c[nH]c4ccccc34)no2)c2ccccc21

>  <growth, %>
50.5

$$$$
>  <COMPOUND_STRUCTURE>
CCOc1ccc(-n2nc(C(=O)Nc3ccccc3)nc2-c2cc(OC)c(OC)c(OC)c2)cc1

>  <growth, %>
53.2

$$$$
>  <COMPOUND_STRUCTURE>
COc1cccc(-c2nc3sccn3c2-c2ccnc(NCCNS(=O)(=O)c3ccccc3)c2)c1

>  <growth, %>
29.8

$$$$
>  <COMPOUND_STRUCTURE>
COc1cc2c(cc1-c1c(C)noc1C)ncc1nc(C3CCOCC3)n([C@H](C)COC(F)F)c12

>  <growth, %>
50.4

$$$$
>  <COMPOUND_STRUCTURE>
COc1ccc(/C=C/C(=O)c2ccc(O)c(CN3CCN(c4cc5c(cc4F)c(=O)c(C(=O)O)cn5C4CC4)CC3)c2)cc1

>  <growth, %>
57.3

$$$$
>  <COMPOUND_STRUCTURE>
Cc1ccc(NS(=O)(=O)c2ccc(-c3cnc(C4CC4)o3)cc2)cc1C

>  <growth, %>
27

$$$$
